Test system: mouse ascites Ehrlich carcinoma
Assay: Cytotoxicity, nonspecific esterase (FDA) assay, ascites Ehrlich carcinoma cells
Conditions: Mus musculus, Ehrlich, 24 h, read-out: Cytotoxicity (EC50), Ascites Ehrlich Carcinoma
PROPERTY MEASURED: pEC50
Expect pEC50 as a plain number equal to -log10 of the molar concentration.

Here's what some known entries look like.
- MOLECULE: "COc1c(Cl)c(Cl)c(OC)c2c1C(=O)C1=C(S[C@@H]3OC[C@@H](O)[C@H](O)[C@H]3O1)C2=O [Compound 18c]"
  TARGET ENTITY: "mouse ascites Ehrlich carcinoma"
  ASSAY VALUE: 5.35
- MOLECULE: "COc1c(Cl)c(Cl)c(OC)c2c1C(=O)C1=C(S[C@@H]3O[C@H](CO)[C@@H](O)[C@H](O)[C@H]3O1)C2=O [Compound 18a]"
  TARGET ENTITY: "mouse ascites Ehrlich carcinoma"
  ASSAY VALUE: 5.06
- MOLECULE: "O=C1C2=C(O[C@@H]3[C@@H](O)[C@@H](O)[C@@H](CO)O[C@H]3S2)C(=O)c2c(O)cccc21 [Compound 20b]"
  TARGET ENTITY: "mouse ascites Ehrlich carcinoma"
  ASSAY VALUE: 5.96

Provide one value: measured pEC50 of O=C1C2=C(O[C@@H]3[C@@H](O)[C@H](O)[C@@H](CO)O[C@H]3S2)C(=O)c2c(O)cccc21 [Compound 20a]
5.57

Provide one value: measured pEC50 of O=C1C2=C(O[C@@H]3[C@@H](O)[C@H](O)CO[C@H]3S2)C(=O)c2c(O)cccc21 [Compound 20c]
6.15

Provide one value: measured pEC50 of COc1c(Cl)c(Cl)c(OC)c2c1C(=O)C1=C(S[C@@H]3OC[C@H](O)[C@H](O)[C@H]3O1)C2=O [Compound 18d]
5.39

---

molecules and their reported EC50 at 24 h
Assay: Cytotoxicity, statements of the text over all tested cell lines
Conditions: human, mouse

- MOLECULE: "O=C1C2=C(S[C@@H]3O[C@H](CO)[C@H](O)[C@H](O)[C@H]3O2)C(=O)c2c(O)cccc21 [Compound 19b]"
  PROPERTY MEASURED: "EC50 at 24 h"
  ASSAY VALUE: "600 to 900 nM"

Provide one value: measured EC50 at 24 h of O=C1C2=C(S[C@@H]3O[C@H](CO)[C@@H](O)[C@H](O)[C@H]3O2)C(=O)c2c(O)cccc21 [Compound 19a]
600 to 900 nM

Provide one value: measured EC50 at 24 h of O=C1C=CC(=O)c2c(O)cccc21 [Juglone, 5-hydroxy-1,4-naphthoquinone, reference compound]
> 100000 nM

---

Tested on: mouse ascites Ehrlich carcinoma
Assay: Cytotoxicity, nonspecific esterase (FDA) assay, ascites Ehrlich carcinoma cells
Conditions: read-out: Cytotoxicity (EC50), Ascites Ehrlich Carcinoma; FDA, 24 h
PROPERTY MEASURED: EC50 (µM)
Lab book: enter the figure in µM, no units written.

Provide one value: measured EC50 of C=C(C)CCCC1(C)OC(=O)C23CCC4C(=CCC5C(C)(C)C(OC6OCC(OS(=O)(=O)O)C(O)C6OC6OC(C)C(OC7OC(CO)C(O)C(OC8OC(CO)C(O)C(OC)C8O)C7O)C(O)C6OC6OCC(O)C(O)C6O)CCC45C)C2(C)CC(=O)C13 (stereo not shown) [Cucumarioside A2-2, reference compound]
18.5

Values compiled from paper PMC7463537.
